EXPERIMENTAL_TARGET: T1, EsCas13d, nuclease-dead (Eubacterium siraeum, UniProt B0MS50, R295A;H300A;R849A;H854A)
T1 sequence: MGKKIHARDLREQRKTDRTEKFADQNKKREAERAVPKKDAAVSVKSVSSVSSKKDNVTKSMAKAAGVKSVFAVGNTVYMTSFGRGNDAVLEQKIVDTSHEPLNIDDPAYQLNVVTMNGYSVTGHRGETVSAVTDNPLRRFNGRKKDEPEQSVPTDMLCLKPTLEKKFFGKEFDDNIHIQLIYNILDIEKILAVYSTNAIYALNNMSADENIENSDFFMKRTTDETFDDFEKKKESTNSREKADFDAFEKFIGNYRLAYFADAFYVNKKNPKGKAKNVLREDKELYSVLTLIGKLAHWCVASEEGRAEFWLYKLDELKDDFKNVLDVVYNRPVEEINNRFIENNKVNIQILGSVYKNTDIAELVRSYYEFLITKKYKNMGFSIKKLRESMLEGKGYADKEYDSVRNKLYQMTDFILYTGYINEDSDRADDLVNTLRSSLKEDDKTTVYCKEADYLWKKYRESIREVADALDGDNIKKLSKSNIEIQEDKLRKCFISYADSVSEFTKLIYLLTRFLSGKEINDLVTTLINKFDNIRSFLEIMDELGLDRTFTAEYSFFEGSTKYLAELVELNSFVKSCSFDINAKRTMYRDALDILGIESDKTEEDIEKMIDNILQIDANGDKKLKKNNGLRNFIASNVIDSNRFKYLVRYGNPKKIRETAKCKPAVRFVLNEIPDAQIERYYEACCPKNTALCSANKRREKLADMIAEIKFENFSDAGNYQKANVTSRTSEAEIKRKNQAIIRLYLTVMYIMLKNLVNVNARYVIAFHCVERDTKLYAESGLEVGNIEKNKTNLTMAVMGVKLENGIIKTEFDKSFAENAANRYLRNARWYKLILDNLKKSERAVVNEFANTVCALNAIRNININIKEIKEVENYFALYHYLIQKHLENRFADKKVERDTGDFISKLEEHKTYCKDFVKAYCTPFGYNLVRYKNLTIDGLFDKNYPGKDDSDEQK
EXPERIMENT_DESCRIPTION: crRNA (strand 1, pre-loaded); Mg2+; 40 mM Tris-HCl pH 7.5, 150 mM NaCl, 6 mM MgCl2, 1 mM DTT, 0.1% Tween-20, 0.2 mg/ml BSA; 25 C; 10 min per concentration, then washed
CONDITION_SET: tags: His6-TwinStrep-SUMO cleaved; N-terminal SNAP kept (SNAP-Surface 488); label: 3' end held by stalled T7 RNA polymerase
OBSERVATION_TYPE: pKd
Answers are plain numbers, as −log10 of the molar value.

>>> value("target 2 MT 5'PFS AGC 3'PFS CAU (mixed) RNA 1: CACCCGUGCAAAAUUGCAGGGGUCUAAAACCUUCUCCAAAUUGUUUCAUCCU RNA 2: GGGAAUGGAUCCACAUCUACGAAUUCAGCAGGAUGAAACAAUUUGGAGAAGCAUAGAUCGGAAGAGCACACGU")
8.14

For the 2 binders below, give their pKd values.
1. target 3 C6U,A11C (mixed) RNA 1: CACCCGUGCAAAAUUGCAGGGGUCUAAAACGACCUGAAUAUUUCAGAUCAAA RNA 2: GGGAAUGGAUCCACAUCUACGAAUUCGUUUUUGAUCUGAACUAUUUAGGUCUGCAGAUCGGAAGAGCACACGU
2. target 1 C2G,G12U (mixed) RNA 1: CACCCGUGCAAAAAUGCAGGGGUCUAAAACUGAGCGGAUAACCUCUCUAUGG RNA 2: GGGAAUGGAUCCACAUCUACGAAUUCGUACCAUAGAGAGUUUAUCCGCUGACCGAGAUCGGAAGAGCACACGU

1: 7.20; 2: 8.15
